Data credit: patent US20250092065A1

System: Target C
assay.summary: RT-qPCR canonical junction panel assay, Target C mRNA
Type: cell-based
experimental.parameters: Table 4, read-out: Target C IC50 (decrease in CJ mRNA levels)
Description: Compounds described herein were used to modulate RNA transcript abundance in cells. The expression of a target mRNA was measured by detecting the formation of an exon-exon junction in the canonical transcript (CJ). A compound mediated exon-inclusion event was detected by observing an increase in formation of a new junction with an alternative exon (AJ). Real-time qPCR assays were used to detect these splicing switches and interrogate the potency of various compounds towards different target genes. […]
pIC50: −log10 of the molar value.
Readings of pIC50 for the listed molecules

# annotated cases, reported pIC50 shown
molecule="Cn1cc2cc(-c3ccc4nc(N5CC[C@H](NC6CCC6)C5)ccc4n3)c(O)c(F)c2n1 (single isomer, unassigned)" experimental_readout=pIC50 experimental_result="> 7.00"
molecule="Cc1nc2c(C)c(O)c(-c3ccc4nc(N5CC[C@H](NC(C)C)C5)ccc4n3)cc2o1 (single isomer, unassigned)" experimental_readout=pIC50 experimental_result="> 7.00"
molecule="Cn1cc2cc(-c3ccc4nc(N5CC[C@H](NCC6CC6)C5)ccc4n3)c(O)c(F)c2n1 (single isomer, unassigned)" experimental_readout=pIC50 experimental_result="> 7.00"
molecule="Cc1nc2c(C)c(O)c(-c3ccc4nc(N5CC[C@@H](NC6(CF)CC6)C5)ccc4n3)cc2o1 (single isomer, unassigned)" experimental_readout=pIC50 experimental_result="6.00 to 7.00"

Given the molecule CNC(=O)c1nc(-c2cc3cn(C)nc3c(F)c2O)nc2ccc(N3CCC(N(C)C)CC3)cc12 , what is its reported pIC50? 5.00 to 6.00

Given the molecule Cc1cc(N2C[C@@H](C)N[C@@H](C)C2)cc2c(Cl)cc(-c3cc4cn(C)nc4c(F)c3O)nc12 , what is its reported pIC50? 6.00 to 7.00

Given the molecule Cc1c(O)c(-c2ncc3cc(N4C[C@@H](C)N[C@@H](C)C4)ccc3n2)cc2cn(C)nc12 , what is its reported pIC50? 5.00 to 6.00
